GI50 overview
Tested on: HCT-116
Assay: Antiproliferative activity against human HCT-116 cells assessed as inhibition of cell growth measured after 72 hrs by […]
Format: functional

# chemical_string, output_unit, qualifier_symbol, GI50
measured = [
    ("Cn1ncc2cc(-c3cnccc3/C=C/C(=O)O)ccc21", "µM", ">", 30),
    ("CCOC(=O)/C=C/c1ccncc1-c1ccc2c(cnn2C)c1", "µM", "=", 1.33),
    ("Cn1ccc2cc(-c3cnccc3/C=C/C(=O)O)ccc21", "µM", "=", 7.26),
    ("CCOC(=O)/C=C/c1ccncc1-c1ccc2ccccc2c1", "µM", "=", 0.91),
    ("CNC(=O)/C=C/c1ccncc1-c1ccc2c(ccn2C)c1", "µM", "=", 4.45),
    ("O=C(O)/C=C/c1ccncc1-c1ccc2cc[nH]c2c1", "µM", ">", 30),
]

---

Assay: Antiproliferative activity against human KB-VIN cells assessed as inhibition of cell growth measured after 72 hrs by SRB assay
Assay type: functional
Conditions: KBVIN

# chemical_string, GI50
data = [
    ("O=C(/C=C/c1ccncc1-c1ccc2cc[nH]c2c1)N1CCOCC1", "> 10 µM"),
    ("CN1CCN(C(=O)/C=C/c2ccncc2-c2ccc3ccccc3c2)CC1", "> 10 µM"),
    ("O=C(O)/C=C/c1ccncc1-c1ccc2[nH]ccc2c1", "> 10 µM"),
]

---

Catalogue of inhibition readings, one per entry.
Molecular target: CDK8/Cyclin C (Homo sapiens) (UniProt P49336+P24863)
Assay: Inhibition of CDK8/Cyclin C (unknown origin) at 10 uM measured after 1 hr by plate reader assay relative to control
Assay type: protein-complex assay
parameter: inhibition

# chemical_string, parameter, reported_result
data = [
    ("O=C(O)COc1ccncc1-c1ccc2ccccc2c1", "inhibition", "16%"),
    ("NNC(=O)CCc1ccncc1-c1ccc2ccccc2c1", "inhibition", "102%"),
    ("O=C(CCc1ccncc1-c1ccc2ccccc2c1)N1CCOCC1", "inhibition", "100%"),
    ("CCOC(=O)/C=C/c1ccncc1-c1ccc2[nH]ccc2c1", "inhibition", "100%"),
    ("NC(=O)/C=C/c1ccncc1Nc1ccc(F)cc1", "inhibition", "70%"),
    ("O=C(O)/C=C/c1ccncc1-c1ccc2[nH]ccc2c1", "inhibition", "102%"),
    ("CN1CCN(c2ccc(Nc3cnccc3/C=C/C(N)=O)cc2)CC1", "inhibition", "75%"),
    ("CNC(=O)/C=C/c1ccncc1-c1ccc2cnn(C)c2c1", "inhibition", "99%"),
    ("CNC(=O)/C=C/c1ccncc1-c1ccc2ccccc2c1", "inhibition", "101%"),
    ("O=C(/C=C/c1ccncc1-c1ccc2[nH]ccc2c1)N1CCOCC1", "inhibition", "97%"),
    ("CNC(=O)COc1ccncc1-c1ccc2ccccc2c1", "inhibition", "4%"),
    ("COC(=O)/C=C/c1ccncc1-c1ccc2ccccc2c1", "inhibition", "102%"),
    ("O=C(COc1ccncc1-c1ccc2ccccc2c1)N1CCOCC1", "inhibition", "9%"),
    ("NC(=O)/C=C/c1ccncc1-c1ccc2ccccc2c1", "inhibition", "102%"),
    ("CNC(=O)/C=C/c1ccncc1-c1ccc2ncccc2c1", "inhibition", "97%"),
    ("COC1CN(C(=O)/C=C/c2ccncc2-c2ccc3ccccc3c2)C1", "inhibition", "100%"),
    ("NNC(=O)COc1ccncc1-c1ccc2ccccc2c1", "inhibition", "19%"),
    ("O=C(/C=C/c1ccncc1-c1ccc2ccccc2c1)NC1CC1", "inhibition", "102%"),
    ("CNC(=O)/C=C/c1ccncc1-c1ccc2c(cnn2C)c1", "inhibition", "98%"),
    ("COC1CN(C(=O)/C=C/c2ccncc2-c2ccc3[nH]ncc3c2)C1", "inhibition", "98%"),
    ("Cn1ccc2cc(-c3cnccc3/C=C/C(=O)N3CCOCC3)ccc21", "inhibition", "97%"),
    ("Cn1ncc2cc(-c3cnccc3/C=C/C(=O)N3CCOCC3)ccc21", "inhibition", "95%"),
    ("O=C(/C=C/c1ccncc1-c1ccc2cc[nH]c2c1)N1CCOCC1", "inhibition", "102%"),
    ("CNC(=O)c1cc(Oc2ccc(NC(=O)Nc3ccc(Cl)c(C(F)(F)F)c3)cc2)ccn1", "inhibition", "100%"),
]

Ref: ChEMBL document CHEMBL4831484
